The reported measurements were obtained from patent US6504057B2.

Reported melting point values for the following molecules.
Counter-ions that a name gives are not always drawn.

- Molecule: "NC(N)=NC(=O)/C=C/c1cccc(F)c1 (as salt: hydrochloride)"
  melting point: "148 °C"
- Molecule: "NC(N)=NC(=O)/C=C/c1cc(F)cc(F)c1 (as salt: hydrochloride)"
  melting point: "235 °C"
- Molecule: "C/C(=C\\c1c(F)c(F)cc(F)c1F)C(=O)N=C(N)N (as salt: hydrochloride)"
  melting point: "138 °C"
- Molecule: "NC(N)=NC(=O)/C=C/c1cc(F)ccc1F (as salt: hydrochloride)"
  melting point: "230 °C"
- Molecule: "NC(N)=NC(=O)/C=C/c1ccccc1F (as salt: hydrochloride)"
  melting point: "243 °C"
- Molecule: "C/C(=C\\c1cc(F)cc(F)c1)C(=O)N=C(N)N (as salt: hydrochloride)"
  melting point: "178 °C"
